Biological target: menin/MLL binding (biotinylated wild-type or mutated menin and MLL-AF9 fusion protein) (Homo sapiens)
Construct: biotinylated (1) wild-type menin or (2) mutated menin (described in Nature (2012) Vol. 482, pp. 542-548); fused on or other part: Biotin attached chemically (Sulfo-NHS-Biotin); no fused second protein is printed for menin
Sequence (O00255 1-459 limits assumed): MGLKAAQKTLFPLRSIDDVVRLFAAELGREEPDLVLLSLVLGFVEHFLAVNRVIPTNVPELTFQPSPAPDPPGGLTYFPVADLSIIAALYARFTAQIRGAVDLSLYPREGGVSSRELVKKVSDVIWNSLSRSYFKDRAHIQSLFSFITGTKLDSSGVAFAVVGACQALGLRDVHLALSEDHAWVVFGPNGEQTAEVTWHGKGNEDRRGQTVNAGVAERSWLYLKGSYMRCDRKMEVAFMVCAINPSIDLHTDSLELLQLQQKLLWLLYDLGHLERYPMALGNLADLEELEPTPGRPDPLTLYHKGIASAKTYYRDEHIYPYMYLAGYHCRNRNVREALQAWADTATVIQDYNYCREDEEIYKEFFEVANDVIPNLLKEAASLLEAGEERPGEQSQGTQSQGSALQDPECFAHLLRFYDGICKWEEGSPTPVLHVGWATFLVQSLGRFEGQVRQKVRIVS
Experiment: Assay 1 (Binding Assay): AlphaLISA menin/MLL binding
Settings: 5 nM biotinylated menin, MLL-AF9-FLAG lysate
# IC50 listing for each entry below
ASSAY ENDPOINT: IC50

In [3]: df
Out[3]:
                                    compound  assay_endpoint     measurement
 0  CC(C)N(C)C(=O)c1cc(F)ccc1-n1cc([C@H]2CC[C@@H](N3CCOCC3)CC2)c2ccncc21            IC50        < 100 nM
 1  CC(C)N(C)C(=O)c1cc(F)ccc1-n1cc([C@H]2CC[C@H](NC(=O)c3ccccc3)CC2)c2ccncc21            IC50       ≥ 1000 nM
 2  CC(C)N(C)C(=O)c1cc(F)ccc1-n1cc(C2CCNC(Cc3ccccc3)C2)c2ccncc21 (stereo not drawn)            IC50        < 100 nM
 3  CC(C)N(C)C(=O)c1cc(F)ccc1-n1cc(C2CCN(C[C@H]3C[C@@H](NS(C)(=O)=O)C3)CC2)c2ccncc21 (stereo in doubt)            IC50        < 100 nM
 4  CC(C)N(C)C(=O)c1cc(F)ccc1-n1cc(C2CCN(CCN3CCC(NS(C)(=O)=O)CC3)CC2)c2ccncc21            IC50        < 100 nM
 5  CCN(C(=O)c1cc(F)ccc1-n1cc(C2CCCN(Cc3ccc4[nH]c(=O)[nH]c4c3)C2)c2ccncc21)C(C)C (single isomer, unassigned) [Example 47B]            IC50        < 100 nM
 6  CC(C)N(C)C(=O)c1cc(F)ccc1-n1cc(C2CCC3(CC2)CNC3)c2ccncc21            IC50  100 to 1000 nM
 7  Fc1ccc(-n2cc(C3CCN(CCc4ccccc4)CC3)c3ccncc32)cc1            IC50  100 to 1000 nM
 8  CC(C)N(C)C(=O)c1cc(F)ccc1-n1cc(C2CCC(NCC3CCC(NS(C)(=O)=O)CC3)CC2)c2ccncc21 (single isomer, unassigned) [Example 62]            IC50        < 100 nM
 9  CC(C)N(C)C(=O)c1cc(F)ccc1-n1cc(C2CCN(Cc3ccc4c(c3)[nH]c(=O)n4CCO)C2)c2ccncc21 (stereo not drawn)            IC50        < 100 nM
10  CC(C)N(C)C(=O)c1cc(F)ccc1-n1cc(C2CCN(Cc3ccc(C#N)cc3)CC2)c2ccncc21            IC50        < 100 nM
11  CCN(C(=O)c1cc(F)ccc1-n1cc(C2CCCN(Cc3ccc4[nH]c(=O)[nH]c4c3)C2)c2ccncc21)C(C)C (single isomer, unassigned) [Example 47A]            IC50        < 100 nM
12  Cc1nnc(C2CC2)n1-c1cc(F)ccc1-n1cc(C2CCCN(Cc3ccc4[nH]c(=O)[nH]c4c3)C2)c2ccncc21 (stereo not drawn)            IC50        < 100 nM
13  CC(C)N(C)C(=O)c1cc(F)ccc1-n1cc(C2CCC(N3CCNC(=O)C3)CC2)c2ccncc21 (stereo not drawn)            IC50  100 to 1000 nM
14  CC(C)N(C)C(=O)c1cc(F)ccc1-n1c(=O)n(C2CCN(CC3CCCCC3)CC2)c2ccncc21            IC50        < 100 nM
15  CC(C)N(C)C(=O)c1cc(F)ccc1-n1cc([C@H]2CC[C@@H](N3CCCC(O)C3)CC2)c2ccncc21 (stereo partly drawn)            IC50        < 100 nM
16  CC(C)N(C)C(=O)c1cc(F)ccc1-n1cc([C@H]2CC[C@@H](N3CCC[C@@H]3CO)CC2)c2ccncc21            IC50        < 100 nM
17  CC(C)N(C)C(=O)c1cc(F)ccc1-n1cc(C2CCN(Cc3ccc4[nH]c(=O)[nH]c4c3)CC2)c2ccncc21            IC50        < 100 nM
18  CC(C)N(C(=O)c1cc(F)ccc1-n1cc(C2CCCN(C(=O)OC(C)(C)C)C2)c2ccncc21)C(C)C (stereo not drawn)            IC50       ≥ 1000 nM
19  CC(C)N(C)C(=O)c1cc(F)ccc1-n1cc(C2CCN(Cc3ccc4[nH]c(C#N)cc4c3)CC2)c2ccncc21            IC50        < 100 nM
20  CC(C)N(C)C(=O)c1cc(F)ccc1-n1cc(C2CCN(C(=O)Cc3ccccc3)CC2)c2ccncc21            IC50  100 to 1000 nM
21  CC(C)N(C)C(=O)c1cc(F)ccc1-n1cc(C2CCN(C(=O)C3Cc4ccccc4C3)CC2)c2ccncc21            IC50        < 100 nM
22  CC(C)N(C)C(=O)c1cc(F)ccc1-n1cc([C@H]2CC[C@@H](N3CCC(C(=O)O)CC3)CC2)c2ccncc21            IC50  100 to 1000 nM
23  CC(C)N(C(=O)c1cc(F)ccc1-n1cc(C2CN(C[C@H]3CC[C@H](NS(C)(=O)=O)CC3)C2)c2ccncc21)C(C)C            IC50        < 100 nM
24  CC(C)N(C)C(=O)c1cc(F)ccc1-n1cc(C2CCN(CC3CCOCC3)CC2)c2ccncc21            IC50        < 100 nM
25  CC(C)N(C)C(=O)c1cc(F)ccc1-n1cc(C2CCCN(Cc3ccc4[nH]c(=O)[nH]c4c3)C2)c2ccncc21 (single isomer, unassigned) [Example 43A]            IC50        < 100 nM
26  CC(C)N(C)C(=O)c1cc(F)ccc1-n1cc([C@H]2CC[C@H](N3CCCCC3)CC2)c2ccncc21            IC50        < 100 nM
